Conditions: in ethanol, 318.15 K
Measure: solubility (mole fraction)

Check out these entries, answers already filled in.
* O=C(/C=C/c1cn(-c2ccccc2)nc1-c1ccccc1)c1nc2ccccc2[nH]1 | 0.000135
* COc1ccc(-c2nn(-c3ccccc3)cc2/C=C/C(=O)c2nc3ccccc3[nH]2)cc1 | 0.00042
* COc1cccc(-c2nn(-c3ccccc3)cc2/C=C/C(=O)c2nc3ccccc3[nH]2)c1 | 0.000136
* O=C(/C=C/c1cn(-c2ccccc2)nc1-c1ccccc1Cl)c1nc2ccccc2[nH]1 | 0.000179

A: COc1ccc(-c2nn(-c3ccccc3)cc2/C=C/C(=O)c2nc3ccccc3[nH]2)cc1OC
B: O=C(/C=C/c1cn(-c2ccccc2)nc1-c1ccc(Cl)cc1)c1nc2ccccc2[nH]1
Which value of solubility (mole fraction) is smaller, the one for A or the one for B ? State the label of the item chosen.
A
